The reported measurements were obtained from patent US11440923B2.

- Tested on: SUDHL5 cells
- testMethodNotes: Induction of caspase-3/7 activity in SUDHL5 cells (Assay 4)
- Format: cell-based
- particulars: Homo sapiens, SU-DHL-5, 3 h, caspase-3/7 induction, 3 h; read-out: Caspase SUDHL5 EC50 (median)
Each entry below lists one item and its recorded pEC50 value.
Just so you know, pEC50 here is -log10 of the concentration in molar units; reply with that number alone.

CCc1c2c(nn1C)C(CCN1CCOCC1)OCCCCn1c(C(=O)O)c(CCCOc3cccc4cc(F)ccc34)c3ccc(Cl)c-2c31 (racemic) ... 8.00
CCc1c2c(nn1C)C(CCN1CC(F)(F)C1)OCCCCn1c(C(=O)O)c(CCCOc3cccc4cc(F)ccc34)c3ccc(Cl)c-2c31 (racemic) ... 7.51
CCc1c2c(nn1C)C(CCN1CCC(F)(F)C1)OCCCCn1c(C(=O)O)c(CCCOc3cccc4cc(F)ccc34)c3ccc(Cl)c-2c31 (racemic) [Example 55] ... 7.49
Cc1c2c(nn1C)C(CCN1CCOCC1)OCCCCn1c(C(=O)O)c(CCCOc3cccc4cc(F)ccc34)c3ccc(F)c-2c31 (racemic) [Example 19] ... 7.14
CCc1c2c(nn1C)C(CCO)OCCCCn1c(C(=O)O)c(CCCOc3cccc4cc(F)ccc34)c3ccc(Cl)c-2c31 (racemic) ... 6.92

Item CCc1c2c(nn1C)C1CCCCN1CCCCn1c(C(=O)O)c(CCCOc3cccc4ccccc34)c3ccc(Cl)c-2c31 (racemic) [Example 102] was tested on SUDHL5 cells; the reported pEC50 is 6.11
